Values compiled from ChEMBL document CHEMBL5352500.

# test_description: physchem
# condition_summary: buffer, pH 7.4
property_measured: logD
Could you respond with only the numeric value?

(Q) Name the recorded logD for Cc1ccc(NC(=O)c2ccc3c(c2)OCCO3)cc1NC(=O)c1ccc2nc(OCCN3CCCC3)ccc2c1 .
(A) 2.1
